Reported cytotoxicity at 10 µM by item:
# procedure_details: Toxicity liver stage against HepG2, at 10uM
# Format: cell-based
# Parameters: test concentration 10 uM, cell line HepG2-A16-CD81EGFP
# stated_conditions: human, HepG2-A16-CD81EGFP cells; read-out: INHIBITION

compound	cytotoxicity at 10 µM / %
C=c1ncsc1=C1NC(c2cccc(CN3CCOCC3)c2)=NO1	-11.3
COc1cccc([C@@]2(O)CC[C@@H]3CN(C(=O)c4c[nH]nc4C)C[C@@H]32)c1	2.67
CC(C)OCCC(=O)Nc1c(-c2ccc(F)cc2)ncn1C	-3.41
Cc1noc(C(C)N(C)Cc2ccco2)n1 (centres undefined)	6.6
Cc1nnc(NC(=O)c2cc(S(=O)(=O)N3CCSCC3)c[nH]2)s1	-7.01
CC(NCc1ccccc1Cl)c1ccc(OCC(=O)NC2CC2)cc1 (centres undefined)	-12.7
COc1cccc2c1OCC(C(=O)N1Cc3ccccc3C1)C2 (centres undefined)	3.16
Cc1ccc(C2(O)CCN(Cc3nc(C)n4ccccc34)CC2)nc1	3.43
CCCc1nc(NCCCn2ccnc2)c2c(n1)c(C)nn2CC	8.26
CCC[C@H]1CN(C(=O)CCn2ccccc2=O)C[C@@H]1NS(C)(=O)=O	5.35
CC1COCCN1C(=O)NCCn1ccnc1 (centres undefined)	-50.4
Cc1nc(CSc2nc(=O)ccn2C(C)C)cs1	16.4
COCC1c2c(cnn2C)CCN1C(=O)c1cscn1 (centres undefined)	-101
O=C(Cc1ccncc1)N(CCO)CCSc1ccc(Cl)cc1	2.59
CCS(=O)(=O)N1CCN(c2cc(-n3cnc(C)c3C)nc(C)n2)CC1	0.599
COc1ccc(C(=O)N2CC[C@@H]3[C@H](CC2)N(C)CCS3(=O)=O)cc1	-117
CC(=O)N1CCC(NC(C)c2cnn(-c3ccc(F)cc3F)c2C)CC1 (centres undefined)	-6.4
CNC(=O)c1cn[nH]c1C1CCN(Cc2ccccc2OC)C1 (centres undefined)	7.16
CC(C)NC(=O)c1noc2c1CN(Cc1cnn(C)c1)CC2	6.59
CN1CC(C(=O)NCc2ccnc(-n3cccn3)c2)CC1=O (centres undefined)	-0.867
CCNC(=O)Cc1ccc(NC(=O)NC(CC)c2ccncc2)cc1 (centres undefined)	-3
Cc1cccc(OCC(=O)NS(=O)(=O)Cc2ccccc2)c1	0.224
C=C(C)CNC(C)c1ccc(S(C)(=O)=O)c(F)c1 (centres undefined)	0.563
COC[C@@]12CCC[C@@H]1CN(C(=O)N1CCCC1)C2	7.9
COc1ccccc1-c1ncc(CN2CCC3(CCNCC3)CC2)cn1	-1.49
Cc1n[nH]c(C)c1CCC(=O)NCC1(O)CCN(c2ccccn2)C1 (centres undefined)	-1.08
COCCCN1CC2(CCCCN2C(=O)C2CCCCC2)CC1=O (centres undefined)	12.2
CC(=O)N1CCCCC1c1cc(CO)[nH]n1 (centres undefined)	-0.671
CC(C)c1sc(Br)nc1C(=O)NCc1ccncc1	1.18
CN1CCCN(S(C)(=O)=O)c2cc(F)ccc21	-2.24
Cc1nn(C)c2c(N3CCN(C)CC3)nc(C3CC3)nc12	-5.2
Cc1ccc(CN(CCCn2ccnc2)Cc2cnn(C)c2)s1	-18
COc1coc(C(=O)Nc2nc(-c3ccccn3)cs2)cc1=O	7.31
CCC(C)NC(=O)Nc1cccc(OCCCC#N)c1 (centres undefined)	-2.01
O=C1CC[C@H]2CN(Cc3cccc(F)c3)CC[C@H]2N1CCc1c[nH]cn1	-1.04
CC(C)N1CC(C(=O)N2CCc3c(nc(CC4CC4)[nH]c3=O)C2)CC1=O (centres undefined)	-8.25
COCCSc1ccc(-n2cccn2)nn1	-24.6
COc1ccc(/C=C/CN2CCC3(C2)CN(C)C(=O)O3)cc1 (centres undefined)	0.313
CCCN(CC)C(=O)c1cc(Cn2c(C)nc3ccccc32)[nH]n1	36.7
